Collected ER-phagy suppression values appear next to each entry.
# Test system: U2OS
# METHOD_NOTES: Here: values are normalized to the positive (DMSO; basel flux = defined as 100% suppression) and negative (250nM Torin1; mTOR inhibitor; maximal inducer of autophagy defined as 0% suppression) control compounds and represented as % of ER-phagy suppression. […] The impact of autophagy induction on cells is complex and depends on the affected target. […] Of note, treatment concentrations may be sub-optimal for specific compounds, leading to false negative annotations.
# Format: functional, Homo sapiens
# CONDITION_LABEL: Compound Concentration 1 uM, Timepoint 24 hours, Culturing Media DMEM, 1 % Penicillin/Streptomycin, 10% Fetal bovin serum Add-On: blasticidin, Screening Media Control DMEM, 10% Fetal bovin serum Add-On: 1 µg/ml Doxycyclin, Screening Media Samples DMEM, 10% Fetal bovin serum Add-On: 1 µg/ml Doxycyclin 250nM Torin1
PROPERTY_MEASURED: ER-phagy suppression

TEST_SMILES | SYSTEM_TESTED | MEAS_VALUE
Cc1cnc(-c2cnc(NCCNc3ccc(C#N)cn3)nc2-c2ccc(Cl)cc2Cl)[nH]1 | U2OS | 29.9628%
CNc1nc(-c2ccc3c(N)n[nH]c3c2)cc(N2C[C@@H](C(=O)NC3CCCCC3)CC[C@H]2C)n1 | U2OS | -26.9041%
Cn1cc(C2=C(c3cn(C4CCN(Cc5ccccn5)CC4)c4ccccc34)C(=O)NC2=O)c2ccccc21 | U2OS | 19.4915%
CC1=C(C#N)[C@@H](c2ccc3[nH]nc(C)c3c2)C(C#N)=C(c2ccc(Cl)cc2)N1 | U2OS | -26.9283%

* * *

Recorded ER-phagy suppression for the following molecules
# Test system: U2OS
# METHOD_NOTES: Here: values are normalized to the positive (DMSO; basel flux = defined as 100% suppression) and negative (250nM Torin1; mTOR inhibitor; maximal inducer of autophagy defined as 0% suppression) control compounds and represented as % of ER-phagy suppression. […] The impact of autophagy induction on cells is complex and depends on the affected target. […] Of note, treatment concentrations may be sub-optimal for specific compounds, leading to false negative annotations.
# Assay type: functional, Homo sapiens
# CONDITION_LABEL: Compound Concentration 1 uM, Timepoint 60 hours, Culturing Media DMEM, 1 % Penicillin/Streptomycin, 10% Fetal bovin serum Add-On: blasticidin, Screening Media Control DMEM, 10% Fetal bovin serum Add-On: 1 µg/ml Doxycyclin, Screening Media Samples DMEM, 10% Fetal bovin serum Add-On: 1 µg/ml Doxycyclin 250nM Torin1
PROPERTY_MEASURED: ER-phagy suppression (%)

MOLECULE | MEAS_VALUE
CN1CCN(C(=O)C(C)(C)c2ccc(C(=O)Nc3cn4cc(-c5ccncc5)ccc4n3)cc2)CC1 [T3-CLK] | 83.9667
Cn1cc(-c2ccc3nnc(Sc4ccc5ncccc5c4)n3n2)cn1 [SGX-523] | 11.7711
Cc1ccc(NC(=O)Nc2cc(C(F)(F)F)ccc2F)cc1Nc1ccc2c(c1)NC(=O)/C2=C\c1ccc[nH]1 | -1.261
O=C(O)c1ccc(-c2c[nH]c3ncc(-c4ccccc4)cc23)cc1C1CCCC1 [GSK-650394] | 9.397
CNc1nc(-c2ccc3c(N)n[nH]c3c2)cc(N2C[C@@H](C(=O)NC3CCCCC3)CC[C@H]2C)n1 | -21.6855
CCN(Cc1ccc(Cl)cc1)c1ncc(C(=O)NCCCN2CCCC2=O)c(NC2CCCC2)n1 | -6.981
O=c1cc(N2CCOCC2)oc2c(-c3cccc4c3sc3ccccc34)cccc12 | -4.5
COc1cc(Nc2ccnc3ccc(Br)cc23)cc(OC)c1OC | 41.5059
CCOC(=O)c1c(/C(C#N)=C\N)c2ccc(Cl)c(Cl)c2n1C | -3.592
CN1CCC(COc2cnc(-c3cccc(Cn4nc(-c5cccc(C#N)c5)ccc4=O)c3)nc2)CC1 [TEPOTINIB] | 23.3369
COc1cc(C2c3cc4c(cc3[C@H](O)[C@H]3COC(=O)[C@@H]23)OCO4)cc(OC)c1OC (stereo not given in full) | 9.356
Cc1c(NC(=O)c2ccc(C(C)(C)C)cc2)cccc1-c1cn(C)c(=O)c(Nc2ccc(C(=O)N3CCOCC3)cc2)n1 | -20.2284
OCCn1cc(-c2ccc3c(c2)CCC3=NO)c(-c2ccncc2)n1 | 0.4621
CC(=O)NCC(=O)N1[C@@H]2CC[C@H]1c1ccc(Nc3ncc(C(F)(F)F)c(NC4CCC4)n3)cc12 [PF-03814735] | 29.5902
Cc1cc(NC(=O)c2cccc(S(F)(F)(F)(F)F)c2)cc(-n2ccn3nc(-c4cccnc4)cc23)c1 [BAY-309] | -2.656
CN(C)C(=O)Cn1cc(-c2ccc(-c3nnc4ccccn34)cc2)cn1 | -20.2221
C[C@@H](NC(=O)Nc1cc2[nH]ncc2c(CO)n1)c1ccccc1 [ERKi] | -12.4094
CN1C(=O)[C@@H](N2CCc3c(nn(Cc4ccccc4)c3Br)C2=O)COc2ccccc21 [TP-030-2] | -25.2811
CC(=O)Nc1cccc(-n2c(=O)n(C3CC3)c(=O)c3c(Nc4ccc(I)cc4F)n(C)c(=O)c(C)c32)c1 [TRAMETINIB] | 24.7233
CC1=C(C(=O)Nc2cc3cn[nH]c3cc2F)C(c2ccc(C(F)(F)F)cc2)CC(=O)N1 (stereo not given) | 22.9185

* * *

// reported autophagy induction per item
# Test system: U2OS
# METHOD_NOTES: Here: values are normalized to the negative (DMSO; defined as 0% autophagy induction) and positive (250nM Torin1; mTOR inhibitor; defined as maximal inducer of autophagy = 100%) control compounds and represented as % of autophagy induction. […] The impact of autophagy induction on cells is complex and depends on the affected target. As such, the magnitude of a phenotype may not be equally mirrored in the %-value of autophagy induction and vice versa. The dynamics of the induction may indicate the mode of activation: e.g. activation via phosphorylation or a signaling cascade may occur fast, while activation via transcription factors may take considerably longer. […] Of note, treatment concentrations may be sub-optimal for specific compounds, leading to false negative annotations.
# Type: functional, Homo sapiens
# CONDITION_LABEL: Compound Concentration 2 uM, Timepoint 36 hours, Culturing Media DMEM, 1 % Penicillin/Streptomycin, 10% Fetal bovin serum Add-On: No, Screening Media Control DMEM, Screening Media Samples DMEM

COMPOUND | autophagy induction [%]
CSc1ccc(C(=O)N[C@@H]2CCCC[C@@H]2NC(=O)CNC(=O)c2cc(C(F)(F)F)ccc2NC(=O)NC(C)C)cc1 | 8.998
CC(C)(N)C(=O)N[C@H](COCc1ccccc1)C(=O)N1CCC2(CC1)CN(S(C)(=O)=O)c1ccccc12.CS(=O)(=O)O [IBUTAMOREN MESYLATE] | 1.85
COc1cc(-n2cnc3cc(-c4ccc(Cl)cc4)sc3c2=O)ccc1OCCN1CCCC1 | -8.816
Cc1c(P(=S)(c2ccccc2)c2ccccc2)n2ccccc2[n+]1C/C=C/c1ccccc1.[Br-] | 1.308
Cc1cn2cc(CC(=O)N3CCC4(CC3)CN(Cc3ccc(-n5nccn5)cc3Cl)C4)nc2s1 | 0.9512
COc1ccc(NS(=O)(=O)c2sc3ccc(Cl)cc3c2C)cc1N1CCNCC1.Cl | -3.71
CN1CCCC(n2nc(Cc3ccc(Cl)cc3)c3ccccc3c2=O)CC1.Cl (configuration not stated) [AZELASTINE HYDROCHLORIDE] | -1.742
CCCCCCCCCCCCCCCCOC[C@H](COP(=O)([O-])OCC[N+](C)(C)C)OC(C)=O | -2.921
Cl.Cl.Cl.c1ccc(N2CCN(Cc3nc4ccccc4[nH]3)CC2)nc1 | 4.3069
c1cc(CN2CCCNCCNCCCNCC2)ccc1CN1CCCNCCNCCCNCC1 | -19.8311
Cc1cc([C@@H](C)Nc2cccc(-c3cc(C)c(C(=O)N[C@@H](C)C(=O)O)c(C)c3)c2)ccc1Cl | -1.645
Cc1c(OCc2cccc(-c3ccc(C(=O)O)cc3)c2)cc2c(c1C)C(=O)C(C1CCCC1)C2 (configuration not stated) | 2.879

* * *

# Test system: U2OS
# METHOD_NOTES: Here: values are normalized to the negative (DMSO; defined as 0% autophagy induction) and positive (250nM Torin1; mTOR inhibitor; defined as maximal inducer of autophagy = 100%) control compounds and represented as % of autophagy induction. […] The impact of autophagy induction on cells is complex and depends on the affected target. As such, the magnitude of a phenotype may not be equally mirrored in the %-value of autophagy induction and vice versa. The dynamics of the induction may indicate the mode of activation: e.g. activation via phosphorylation or a signaling cascade may occur fast, while activation via transcription factors may take considerably longer. […] Of note, treatment concentrations may be sub-optimal for specific compounds, leading to false negative annotations.
# Assay type: functional, Homo sapiens
# CONDITION_LABEL: Compound Concentration 0.5 uM, Timepoint 60 hours, Culturing Media DMEM, 1 % Penicillin/Streptomycin, 10% Fetal bovin serum Add-On: No, Screening Media Control DMEM, Screening Media Samples DMEM
Listing: autophagy induction of selected compounds
PROPERTY_MEASURED: autophagy induction (%)

COMPOUND | MEAS_VALUE
CSc1ccc(C(=O)N[C@@H]2CCCC[C@@H]2NC(=O)CNC(=O)c2cc(C(F)(F)F)ccc2NC(=O)NC(C)C)cc1 | -12.7895
C/C(=N\NC(=O)[C@@H]1C(=O)NC[C@H]1c1ccccc1)c1cccc(Br)c1 | -3.426
COc1cccc(-c2c(C)n(Cc3c(F)cccc3C(F)(F)F)c(=O)n(C[C@H](NCCCC(=O)[O-])c3ccccc3)c2=O)c1F.[Na+] [ELAGOLIX SODIUM] | -7.02
N#Cc1c(N)nc(SCC(N)=O)c(C#N)c1-c1ccc(OCC2CC2)cc1 | 5.5559
O=C(O)CC1CCC2(CC1)CCN(c1cc(OC(F)(F)F)ccc1Cl)CC2 | -4.709
O=C(O)CC/C=C\C[C@@H]1CO[C@H](c2ccccc2Cl)O[C@@H]1c1ccccc1O | -3.206
C[C@@H](NCCc1ccc(O)cc1)[C@@H](O)c1ccc(O)cc1.Cl (relative stereo) | -0.5871
C[C@]1(C(=O)N(CCCC(=O)O)Cc2cccc(Cl)c2)CCN1C(=O)c1csc2ccccc12 | -4.538
Cc1cc([C@@H](C)Nc2cccc(-c3cc(C)c(C(=O)N[C@@H](C)C(=O)O)c(C)c3)c2)ccc1Cl | -1.838
CNc1nc(NCc2ccc(NS(C)(=O)=O)cc2Cl)cc(-c2ccccn2)n1 | 8.159
COc1ccc(CNC(=O)c2cc(-c3cncc(Cl)c3)cnc2-c2ccccn2)nc1OC | -7.04
CC(C)Oc1ccccc1C(=O)Nc1ccccc1C(=O)Nc1cccc(S(=O)(=O)C(F)(F)F)c1 | -17.6606
CCCCN(CCCC)C(=O)CN1C[C@@H](c2ccc3c(c2)OCO3)[C@H](C(=O)O)[C@H]1c1ccc(OC)cc1 | -16.2807
COc1ccc(NS(=O)(=O)c2sc3ccc(Cl)cc3c2C)cc1N1CCNCC1.Cl | -7.314
c1cc(CN2CCCNCCNCCCNCC2)ccc1CN1CCCNCCNCCCNCC1 | -10.4654
COc1ccnc(N2CCC3(CCCN(Cc4c[nH]c5ccccc45)C3=O)CC2)n1 | 0.6428
COc1ccc(S(=O)(=O)c2cc(OC)ccc2S(=O)(=O)c2ccc([C@H](C)NS(C)(=O)=O)cc2)cc1 | -2.8349
Cl.Clc1cccc(COc2cncc(N3CCNCC3)n2)c1 | -11.4823
CS(=O)(=O)NC[C@H]1CC[C@H](Nc2nc3c(s2)CCSc2ccccc2-3)CC1 | -11.3587
Cc1c(F)cccc1NC(=O)Nc1ccc(Cl)c(S(=O)(=O)[C@H]2CCCNC2)c1O | -5.9905
CCCCCCCCCCCCCCCCOC[C@H](COP(=O)([O-])OCC[N+](C)(C)C)OC(C)=O | -9.658
